- assay target: MbtI (Mycobacterium tuberculosis)
- protocol summary: continuous fluorescence assay of MbtI
- Type: biochemical
- assay conditions: Table 3, class III benzimidazole-2-thiones
observable: Hill Slope
Answers are plain numbers.

Solved cases (4 shown):
CC(=O)n1c(=S)[nH]c2cc(C)ccc21 ... 1.20
CC(=O)n1c(=S)[nH]c2ccccc21 ... 1.00
Cn1c(=S)[nH]c2ccccc21 ... 1.20
CC(=O)n1c(=S)oc2ccccc21 ... 1.10

# evaluate next
Request: Consider the compound shown here: "S=c1[nH]c2ccccc2[nH]1" What is its recorded Hill Slope?
Result: 0.90

---

- assay target: UniProt:P9WFX1
- protocol summary: continuous fluorescence assay of MbtI
- Assay type: biochemical
- assay conditions: IC50, Table 2, class II diarylsulfones
observable: IC50

Solved cases (2 shown):
NS(=O)(=O)c1cccc(S(=O)(=O)c2ccc(Cl)c(Cl)c2)c1 ... 35 µM
CNS(=O)(=O)c1cccc(S(=O)(=O)c2ccccc2)c1 ... > 200 µM

Give one value of IC50 per listed molecule.
1. CNS(=O)(=O)c1cccc(S(=O)(=O)c2ccc(Cl)c(Cl)c2)c1
2. O=S(=O)(NCc1ccccc1)c1cccc(S(=O)(=O)c2ccc(Cl)c(Cl)c2)c1
3. NS(=O)(=O)c1cccc(S(=O)(=O)c2ccc(Cl)cc2)c1

Result:
1: > 200 µM; 2: > 200 µM; 3: > 200 µM

Give one value of IC50 per listed molecule.
1. NS(=O)(=O)c1cccc(S(=O)(=O)c2ccccc2)c1 [Compound 27, 3-(Phenylsulfonyl)benzenesulfonamide]
2. Nc1ccc(S(=O)(=O)c2ccc(N)cc2)cc1 [Compound 33, 4,4′-diaminodiphenylsulfone, reference compound]
3. CC(=O)NS(=O)(=O)c1cccc(S(=O)(=O)c2ccc(Cl)c(Cl)c2)c1

Result:
1. > 200 µM
2. 118 µM
3. > 200 µM

---

- assay target: MbtI (Mycobacterium tuberculosis, UniProt P9WFX1)
- Sequence (P9WFX1 whole entry, looked up): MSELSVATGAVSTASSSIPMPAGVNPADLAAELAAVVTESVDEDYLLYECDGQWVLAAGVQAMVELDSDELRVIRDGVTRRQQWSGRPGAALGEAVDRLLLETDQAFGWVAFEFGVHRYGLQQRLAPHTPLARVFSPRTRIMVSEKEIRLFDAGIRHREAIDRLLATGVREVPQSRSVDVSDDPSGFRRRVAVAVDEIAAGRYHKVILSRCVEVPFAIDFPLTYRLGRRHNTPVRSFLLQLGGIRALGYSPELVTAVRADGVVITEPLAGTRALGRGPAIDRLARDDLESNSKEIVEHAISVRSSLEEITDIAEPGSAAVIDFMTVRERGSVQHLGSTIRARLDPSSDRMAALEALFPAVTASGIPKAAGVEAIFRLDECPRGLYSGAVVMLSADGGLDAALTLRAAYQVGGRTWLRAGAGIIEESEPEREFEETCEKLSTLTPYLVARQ
- protocol summary: continuous fluorescence assay of MbtI
- Format: biochemical
- assay conditions: Table 2, class II diarylsulfones
pIC50: −log10 of the molar value.
observable: pIC50

Request: Consider the molecule shown here: "O=S(=O)(c1cccc(S(=O)(=O)N2CCOCC2)c1)c1ccc(Cl)c(Cl)c1" What is its recorded pIC50?
Result: < 3.70

---

- assay target: MbtI (Mycobacterium tuberculosis)
- protocol summary: HPLC end-point assay of MbtI
- Type: biochemical
observable: IC50 (µM)
Answers are plain numbers, in µM.

NS(=O)(=O)c1cccc(S(=O)(=O)c2ccc(Cl)c(Cl)c2)c1 ... 49.2

# evaluate next
Request: Lab note: need IC50 with MbtI (Mycobacterium tuberculosis) for entry "CC(=O)n1c(=S)[nH]c2ccccc21" , please look it up.
Result: 5.16

---

- assay target: MbtI (Mycobacterium tuberculosis, UniProt P9WFX1)
observable: pKi
One number for each entry, as −log10 of the molar value.

Request: Consider the compound shown here: CC(=O)n1c(=S)[nH]c2ccccc21 [Compound 4, 1-Acetylbenzimidazole-2-thione] What is its recorded pKi?
Result: 5.01
